Reported IC90 by item:
tested on: M. tuberculosis H37Rv growth inhibition; experiment: Mycobacterium tuberculosis H37Rv growth inhibition, putative kinase inhibitor library, confirmatory dose response (AID 2842);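 also: bacteria incubated one week before Alamar blue readout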

Compound	IC90
CC1CCCN(c2nc3c(c(=O)[nH]c(=O)n3C)n2CCCSc2nc3ccccc3s2)C1 (configuration not stated)	16.6 µg/mL

Turning now to a further compound:
Looking up Oc1cc(OCc2ccccc2Cl)ccc1-c1[nH]ncc1-c1ccccc1 , I found its IC90 recorded as 7.69 µg/mL

###

tested on: M. tuberculosis H37Rv growth inhibition; experiment: Mycobacterium tuberculosis H37Rv growth inhibition, putative kinase inhibitor library, confirmatory dose response (AID 2842);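 also: bacteria incubated one week before Alamar blue readout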
Reported endpoint: IC90

A selection of reference data follows.
N=c1sc(/C=C2\C=Nc3ccccc32)c(O)n1-c1nccs1 < 0.2 mg/L
O=C(Nc1nnc(-c2ccc(F)cc2)o1)c1ccc(Cl)cc1 18.3 mg/L
Cc1ccc(-c2nnc(NC(=O)c3ccc(S(=O)(=O)N4CCC(C)CC4)cc3)o2)c(C)c1 46.7 mg/L
Cc1cn2c3c(=O)[nH]c(=O)n(C)c3nc2n1CCCN(C)Cc1ccccc1 2.62 mg/L
COc1ccc(OCC(=O)Nc2ccc(I)cc2C)cc1 3.2 mg/L
COc1ccc(C)c2sc(N(CCCn3ccnc3)C(=O)c3ccc(Cl)s3)nc12 2.69 mg/L
COc1ccc(C(=O)N(CCCn2ccnc2)c2nc3c(C)ccc(C)c3s2)cc1OC 17 mg/L
Cc1ccccc1Nc1nc(-c2cccnc2)nc2ccccc12 7.35 mg/L

Looking up Cc1oc2c(c1C(=O)NCc1cccnc1)C(=O)c1ccccc1C2=O , I found its IC90 recorded as 8.29 mg/L

Looking up Cc1ccc(C)c(N2CCN(C(=O)CCCCCn3c(=O)[nH]c4ccsc4c3=O)CC2)c1 , I found its IC90 recorded as 10.9 mg/L

Looking up CCN(CC)S(=O)(=O)c1ccc(C(=O)Nc2sccc2C(=O)NC(=O)OC)cc1 , I found its IC90 recorded as < 0.2 mg/L

Looking up O=C(Nc1nnc(-c2cccs2)o1)C1=COCCO1 , I found its IC90 recorded as 6.18 mg/L

Looking up Cc1c(Cl)ccc2sc(N(CCCn3ccnc3)C(=O)c3ccco3)nc12 , I found its IC90 recorded as 0.23 mg/L

Looking up COC(=O)c1c(NC(=O)c2ccccc2I)sc2c1CC(C)(C)NC2(C)C , I found its IC90 recorded as 13.2 mg/L

Looking up O=C(CCSc1ccccc1)Nc1nnc(-c2cccs2)o1 , I found its IC90 recorded as 7.87 mg/L

Looking up O=C(CCOc1ccccc1)Nc1nnc(-c2ccc3c(c2)OCCO3)o1 , I found its IC90 recorded as 95.9 mg/L

Looking up O=C(Nc1nnc(-c2cc(Cl)ccc2Cl)o1)c1ccccc1Br , I found its IC90 recorded as 1.6 mg/L

Looking up O=C(NCCCSc1nc2ccccc2o1)Nc1ncccn1 , I found its IC90 recorded as 25.1 mg/L
